- System: Mycobacterium tuberculosis
- Assay comment: Antimycobacterial activity against STM/INH/EMB/RIF resistant Mycobacterium tuberculosis clinical isolate 234/2005 assessed as bacterial growth inhibition incubated for 14 days by two-fold serial dilution method
- Format: functional
- Condition notes: 234/2005, 336 h, time 14 day
Assay endpoint: MIC
Express the reported value numerically, then name its unit.

INSERT INTO measurements (compound, tested_on, value) VALUES
  ('CNC(C)[C@@H]1CC[C@@H](N)[C@@H](O[C@H]2[C@H](O)[C@@H](O[C@H]3OC[C@](C)(O)[C@H](NC)[C@H]3O)[C@H](N)C[C@@H]2N)O1.CN[C@@H]1[C@@H](O)[C@@H](O[C@@H]2[C@@H](O)[C@H](O[C@H]3O[C@H](C(C)N)CC[C@H]3N)[C@@H](N)C[C@H]2N)OC[C@]1(C)O.CN[C@@H]1[C@@H](O)[C@@H](O[C@@H]2[C@@H](O)[C@H](O[C@H]3O[C@H](CN)CC[C@H]3N)[C@@H](N)C[C@H]2N)OC[C@]1(C)O (some centres undefined)', 'Mycobacterium tuberculosis', '0.26 µM');

Exercise: If you can, please state the reported MIC value of CC1COc2c(N3CCN(C)CC3)c(F)cc3c(=O)c(C(=O)O)cn1c23 (centres undefined) [OFLOXACIN] .
Solution: 0.7 µM

Exercise: C/C(=N\NC(=O)c1ccncc1)C(=O)Nc1ccc(-c2ccccc2)cc1 , same question.
Solution: 64 µM

Exercise: C/C(=N\NC(=O)c1ccncc1)C(=O)Nc1ccc(Oc2ccccc2)cc1 , same question.
Solution: 8 µM
